Measured pKi by item
target: Sodium-dependent dopamine transporter (Rattus norvegicus); assay: Displacement of [125I]RTI55 from DAT in rat brain synaptosomes; assay type: subcellular
Sequence (P23977 whole entry): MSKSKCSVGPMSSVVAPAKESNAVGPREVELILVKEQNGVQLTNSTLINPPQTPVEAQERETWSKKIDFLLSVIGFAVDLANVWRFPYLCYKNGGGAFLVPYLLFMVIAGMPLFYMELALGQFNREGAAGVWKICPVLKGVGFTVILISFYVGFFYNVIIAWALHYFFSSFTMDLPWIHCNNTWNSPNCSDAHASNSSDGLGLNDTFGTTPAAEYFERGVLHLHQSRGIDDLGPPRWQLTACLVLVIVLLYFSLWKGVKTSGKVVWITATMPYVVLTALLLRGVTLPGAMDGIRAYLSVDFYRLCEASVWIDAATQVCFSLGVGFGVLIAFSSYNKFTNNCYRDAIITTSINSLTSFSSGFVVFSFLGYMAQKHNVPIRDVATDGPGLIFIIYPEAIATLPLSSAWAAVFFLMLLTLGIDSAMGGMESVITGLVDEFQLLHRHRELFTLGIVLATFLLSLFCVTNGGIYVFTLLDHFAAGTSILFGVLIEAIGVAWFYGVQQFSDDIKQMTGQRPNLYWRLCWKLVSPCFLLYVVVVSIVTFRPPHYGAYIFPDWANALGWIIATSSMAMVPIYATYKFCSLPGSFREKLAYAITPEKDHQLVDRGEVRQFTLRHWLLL
pKi: −log10 of the molar value.

| smiles-record | experimental-system | pKi |
| --- | --- | --- |
| Fc1ccc(C(OCCC2CCN(Cc3ccc4ccccc4c3)CC2)c2ccc(F)cc2)cc1 | Sodium-dependent dopamine transporter (Rattus norvegicus) | 9.15 |
| Fc1ccc(C(OCCC2CCN(C[C@H]3Cc4ccccc4CN3)CC2)c2ccc(F)cc2)cc1 | Sodium-dependent dopamine transporter (Rattus norvegicus) | 8.03 |
| Fc1ccc(C(OCCN2CCN(Cc3cc4ccccc4[nH]3)CC2)c2ccc(F)cc2)cc1 | Sodium-dependent dopamine transporter (Rattus norvegicus) | 9.15 |
| Fc1ccc(C(OCCN2CCN(Cc3cnc4ccccc4c3)CC2)c2ccc(F)cc2)cc1 | Sodium-dependent dopamine transporter (Rattus norvegicus) | 7.79 |
| Fc1ccc(C(OCCN2CCN(Cc3cc4ccccc4o3)CC2)c2ccc(F)cc2)cc1 | Sodium-dependent dopamine transporter (Rattus norvegicus) | 8.19 |

###

organism: Rattus norvegicus; assay: Selectivity for rat DAT over rat SERT
Measured Ratio pKi by item

| compound | Ratio pKi |
| --- | --- |
| CCN1CCN(CCOC(c2ccc(F)cc2)c2ccc(F)cc2)CC1 | 1.79 |
| Fc1ccc(C(OCCC2CCN(C[C@@H]3Cc4ccccc4CN3)CC2)c2ccc(F)cc2)cc1 | 1 |
| Fc1ccc(C(OCCC2CCN(Cc3cccc4ccccc34)CC2)c2ccc(F)cc2)cc1 | 1.36 |
| N#Cc1ccc(CN2CCC(CCOC(c3ccc(F)cc3)c3ccc(F)cc3)CC2)cc1 | 2.7 |
| C=CCN1CCN(CCOC(c2ccc(F)cc2)c2ccc(F)cc2)CC1 | 1.41 |
| O=C1CCCCC1CN1CCN(CCOC(c2ccc(F)cc2)c2ccc(F)cc2)CC1 (racemic) | 1.29 |
| Fc1ccc(C(OCCC2CCN(Cc3cc4ccccc4s3)CC2)c2ccc(F)cc2)cc1 | 2.18 |
| Fc1ccc(C(OCCC2CCN(Cc3ccc(C(F)(F)F)cc3)CC2)c2ccc(F)cc2)cc1 | 2.6 |

###

biological target: UniProt:P23977; experiment: Displacement of [125I]RTI55 from DAT in rat brain synaptosomes
pKi: −log10 of the molar value.
Measured pKi by item
readout-type: pKi

| molecule | experimental-system | recorded-result |
| --- | --- | --- |
| O[C@H]1c2ccccc2CC[C@@H]1CN1CCN(CCOC(c2ccc(F)cc2)c2ccc(F)cc2)CC1 | UniProt:P23977 | 7.74 |
| Fc1ccc(C(OCCC2CCN(Cc3cc4ccccc4s3)CC2)c2ccc(F)cc2)cc1 | UniProt:P23977 | 8.79 |
| Fc1ccc(C(OCCN2CCN(CC34CC5CC(CC(C5)C3)C4)CC2)c2ccc(F)cc2)cc1 | UniProt:P23977 | 7.00 |
| Fc1ccc(C(OCCN2CCN(Cc3cccc4ccccc34)CC2)c2ccc(F)cc2)cc1 | UniProt:P23977 | 7.51 |
| COc1ccc2c(c1)CC[C@@H](CN1CCN(CCOC(c3ccc(F)cc3)c3ccc(F)cc3)CC1)[C@H]2O | UniProt:P23977 | 7.85 |
| COc1ccc2c(c1)CCC(CN1CCN(CCOC(c3ccc(F)cc3)c3ccc(F)cc3)CC1)=C2 | UniProt:P23977 | 7.28 |
| Fc1ccc(C(OCCC2CCN(CC#Cc3ccccc3)CC2)c2ccc(F)cc2)cc1 | UniProt:P23977 | 8.28 |
| Fc1ccc(C(OCCC2CCN(C[C@@H]3Cc4ccccc4CN3)CC2)c2ccc(F)cc2)cc1 | UniProt:P23977 | 8.32 |
| Fc1ccc(C(OCCN2CCN(Cc3ccc4ncccc4c3)CC2)c2ccc(F)cc2)cc1 | UniProt:P23977 | 7.21 |
| Fc1ccc(C(OCCN2CCN(CCCCl)CC2)c2ccc(F)cc2)cc1 | UniProt:P23977 | 7.38 |
| O=C1CCCCC1CN1CCN(CCOC(c2ccc(F)cc2)c2ccc(F)cc2)CC1 (racemic) | UniProt:P23977 | 7.06 |
| Fc1ccc(C(OCCN2CCN(Cc3ccc4ccccc4n3)CC2)c2ccc(F)cc2)cc1 | UniProt:P23977 | 7.25 |
| Fc1ccc(C(OCCN2CCN(Cc3cc4ccccc4s3)CC2)c2ccc(F)cc2)cc1 | UniProt:P23977 | 8.39 |
| Fc1ccc(C(OCCC2CCN(C[C@H]3C[C@@H]3c3ccccc3)CC2)c2ccc(F)cc2)cc1 | UniProt:P23977 | 8.89 |
| Fc1ccc(C(OCCC2CCN(C[C@@H]3C[C@H]3c3ccccc3)CC2)c2ccc(F)cc2)cc1 | UniProt:P23977 | 9.10 |
| Fc1ccc(C(OCCN2CCN(CC#Cc3ccccc3)CC2)c2ccc(F)cc2)cc1 | UniProt:P23977 | 7.70 |
| Fc1ccc(C(OCCC2CCN(Cc3cc4ccccc4[nH]3)CC2)c2ccc(F)cc2)cc1 | UniProt:P23977 | 9.14 |
| Fc1ccc(C(OCCN2CCN(Cc3ccc4ccccc4c3)CC2)c2ccc(F)cc2)cc1 | UniProt:P23977 | 8.10 |
| Fc1ccc(C(OCCC2CCN(Cc3cc4ccccc4o3)CC2)c2ccc(F)cc2)cc1 | UniProt:P23977 | 9.00 |

###

Measured log10 of Ki by item
target: Sodium-dependent serotonin transporter (Rattus norvegicus); test: Displacement of [125I]RTI55 from SERT in rat brain synaptosomes
Sequence (P31652 whole entry): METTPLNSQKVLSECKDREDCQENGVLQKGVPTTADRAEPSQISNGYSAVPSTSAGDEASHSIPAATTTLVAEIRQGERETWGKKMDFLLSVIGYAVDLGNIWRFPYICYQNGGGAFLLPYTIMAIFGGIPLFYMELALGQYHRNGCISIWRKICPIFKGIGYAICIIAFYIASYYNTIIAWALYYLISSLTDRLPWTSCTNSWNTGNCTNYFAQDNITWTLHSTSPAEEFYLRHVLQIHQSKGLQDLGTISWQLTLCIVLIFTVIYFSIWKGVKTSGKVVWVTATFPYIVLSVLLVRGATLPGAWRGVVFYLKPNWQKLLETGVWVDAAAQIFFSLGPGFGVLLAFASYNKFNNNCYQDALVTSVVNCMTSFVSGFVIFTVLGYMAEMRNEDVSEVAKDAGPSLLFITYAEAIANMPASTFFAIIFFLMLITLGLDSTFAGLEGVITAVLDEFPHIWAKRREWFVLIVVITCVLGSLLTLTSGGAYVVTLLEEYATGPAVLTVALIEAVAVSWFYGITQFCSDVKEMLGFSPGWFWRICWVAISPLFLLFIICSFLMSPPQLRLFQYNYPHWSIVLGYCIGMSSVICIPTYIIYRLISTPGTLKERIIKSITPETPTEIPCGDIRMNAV
readout-type: log10 of Ki (log10 of the value in nM)

| compound | log10 of Ki |
| --- | --- |
| O=C1CCCCC1CN1CCN(CCOC(c2ccc(F)cc2)c2ccc(F)cc2)CC1 (racemic) | 3.23 |
| Fc1ccc(C(OCCC2CCN(C[C@H]3Cc4ccccc4CN3)CC2)c2ccc(F)cc2)cc1 | 1.18 |
| Fc1ccc(C(OCCC2CCN(CC#Cc3ccccc3)CC2)c2ccc(F)cc2)cc1 | 2.21 |
| Fc1ccc(C(OCCN2CCN(Cc3cc4ccccc4o3)CC2)c2ccc(F)cc2)cc1 | 2.46 |
| Fc1ccc(C(OCCN2CCN(Cc3cnc4ccccc4c3)CC2)c2ccc(F)cc2)cc1 | 2.69 |
| Fc1ccc(C(OCCC2CCN(Cc3cc4ccccc4o3)CC2)c2ccc(F)cc2)cc1 | 1.93 |
| Fc1ccc(C(OCCN2CCN(CC#Cc3ccccc3)CC2)c2ccc(F)cc2)cc1 | 2.42 |
| Fc1ccc(C(OCCN2CCN(Cc3ccc4ccccc4c3)CC2)c2ccc(F)cc2)cc1 | 2.49 |
| Fc1ccc(C(OCCC2CCN(Cc3cc4ccccc4[nH]3)CC2)c2ccc(F)cc2)cc1 | 1.94 |

###

molecular target: Sodium-dependent serotonin transporter (Rattus norvegicus); assay: Displacement of [125I]RTI55 from SERT in rat brain synaptosomes
pKi: −log10 of the molar value.
Measured pKi by item

| smiles-record | pKi |
| --- | --- |
| Fc1ccc(C(OCCN2CCN(Cc3cc4ccccc4[nH]3)CC2)c2ccc(F)cc2)cc1 | 6.92 |
| Fc1ccc(C(OCCN2CCN(CC34CC5CC(CC(C5)C3)C4)CC2)c2ccc(F)cc2)cc1 | 6.22 |
| Fc1ccc(C(OCCC2CCN(C[C@@H]3Cc4ccccc4CN3)CC2)c2ccc(F)cc2)cc1 | 7.32 |
| Fc1ccc(C(OCCC2CCN(C[C@@H]3C[C@H]3c3ccccc3)CC2)c2ccc(F)cc2)cc1 | 7.66 |
| Fc1ccc(C(OCCN2CCN(Cc3cc4ccccc4s3)CC2)c2ccc(F)cc2)cc1 | 6.31 |
| O[C@H]1c2ccccc2CC[C@@H]1CN1CCN(CCOC(c2ccc(F)cc2)c2ccc(F)cc2)CC1 | 7.49 |
| Fc1ccc(C(OCCN2CCN(CCCCl)CC2)c2ccc(F)cc2)cc1 | 6.47 |

###

species on record: Rattus norvegicus; assay: Selectivity for rat DAT over rat SERT
Measured Ratio pKi by item

| compound | Ratio pKi |
| --- | --- |
| O=[N+]([O-])c1ccc(CN2CCC(CCOC(c3ccc(F)cc3)c3ccc(F)cc3)CC2)cc1 | 2.51 |
| COc1ccc(CN2CCC(CCOC(c3ccc(F)cc3)c3ccc(F)cc3)CC2)cc1 | 1.53 |
| COc1ccccc1CN1CCC(CCOC(c2ccc(F)cc2)c2ccc(F)cc2)CC1 | 0.6 |
| Fc1ccc(C(OCCC2CCN(Cc3ccc4ccccc4c3)CC2)c2ccc(F)cc2)cc1 | 2.51 |
| Fc1ccc(C(OCCN2CCN(Cc3cc4ccccc4[nH]3)CC2)c2ccc(F)cc2)cc1 | 2.23 |
| O[C@H]1c2ccccc2CC[C@@H]1CN1CCN(CCOC(c2ccc(F)cc2)c2ccc(F)cc2)CC1 | 0.25 |
| Fc1ccc(C(OCCN2CCN(Cc3cc4ccccc4o3)CC2)c2ccc(F)cc2)cc1 | 1.65 |
| COc1ccc2c(c1)CCC(CN1CCN(CCOC(c3ccc(F)cc3)c3ccc(F)cc3)CC1)=C2 | 0.03 |
| O=C1CCCC1CN1CCN(CCOC(c2ccc(F)cc2)c2ccc(F)cc2)CC1 (racemic) | 1.06 |
| Fc1ccc(C(OCCC2CCN(Cc3ccc(I)cc3)CC2)c2ccc(F)cc2)cc1 | 1.99 |
| Fc1ccc(C(OCCC2CCN(Cc3cc4ccccc4[nH]3)CC2)c2ccc(F)cc2)cc1 | 2.08 |
| COc1ccc2c(c1)CCC(CN1CCN(CCOC(c3ccc(F)cc3)c3ccc(F)cc3)CC1)C2=O (racemic) | -0.87 |
| O=C1c2ccccc2CCC1CN1CCN(CCOC(c2ccc(F)cc2)c2ccc(F)cc2)CC1 (racemic) | 0.29 |
| Fc1ccc(C(OCCN2CCN(CC#Cc3ccccc3)CC2)c2ccc(F)cc2)cc1 | 1.12 |
| Fc1ccc(C(OCCN2CCN(CC3=Cc4ccccc4CC3)CC2)c2ccc(F)cc2)cc1 | 1.61 |
| O[C@H]1c2ccccc2CC[C@H]1CN1CCN(CCOC(c2ccc(F)cc2)c2ccc(F)cc2)CC1 | 1.36 |
| Fc1ccc(C(OCCC2CCN(Cc3ccc(Cl)cc3)CC2)c2ccc(F)cc2)cc1 | 2.3 |
| Fc1ccc(C(OCCC2CCN(C[C@H]3Cc4ccccc4CN3)CC2)c2ccc(F)cc2)cc1 | 0.21 |
| Fc1ccc(C(OCCN2CCN(CCCCl)CC2)c2ccc(F)cc2)cc1 | 0.91 |
| Fc1ccc(C(OCCN2CCN(Cc3ccc4ncccc4c3)CC2)c2ccc(F)cc2)cc1 | 0.95 |
| Fc1ccc(C(OCCC2CCN(CC#Cc3ccccc3)CC2)c2ccc(F)cc2)cc1 | 1.49 |
| Fc1ccc(CN2CCC(CCOC(c3ccc(F)cc3)c3ccc(F)cc3)CC2)cc1 | 2.03 |
| Fc1ccc(C(OCCN2CCN(Cc3ccc4ccccc4c3)CC2)c2ccc(F)cc2)cc1 | 1.59 |
| Fc1ccc(C(OCCC2CCN(Cc3ccccc3)CC2)c2ccc(F)cc2)cc1 | 1.24 |
| Fc1ccc(C(OCCC2CCN(C[C@H]3C[C@@H]3c3ccccc3)CC2)c2ccc(F)cc2)cc1 | 2.02 |
| Fc1ccc(C(OCCC2CCN(Cc3ccc(Br)cc3)CC2)c2ccc(F)cc2)cc1 | 2.26 |
| Fc1ccc(C(OCCN2CCN(Cc3cnc4ccccc4c3)CC2)c2ccc(F)cc2)cc1 | 1.48 |
| Fc1ccc(C(OCCN2CCN(Cc3cc4ccccc4s3)CC2)c2ccc(F)cc2)cc1 | 2.08 |
| Fc1ccc(C(OCCC2CCN(C[C@@H]3C[C@H]3c3ccccc3)CC2)c2ccc(F)cc2)cc1 | 1.44 |
| CCCN1CCN(CCOC(c2ccc(F)cc2)c2ccc(F)cc2)CC1 | 1.35 |
| COc1ccc2c(c1)CC[C@@H](CN1CCN(CCOC(c3ccc(F)cc3)c3ccc(F)cc3)CC1)[C@H]2O | -0.67 |
| Cc1ccc(CN2CCC(CCOC(c3ccc(F)cc3)c3ccc(F)cc3)CC2)cc1 | 1.62 |
| Fc1ccc(C(OCCN2CCN(CC34CC5CC(CC(C5)C3)C4)CC2)c2ccc(F)cc2)cc1 | 0.78 |
| COc1cccc(CN2CCC(CCOC(c3ccc(F)cc3)c3ccc(F)cc3)CC2)c1 | 1.08 |
| O=C1CCCCCC1CN1CCN(CCOC(c2ccc(F)cc2)c2ccc(F)cc2)CC1 (racemic) | 1.03 |
| Fc1ccc(C(OCCN2CCN(Cc3cccc4ccccc34)CC2)c2ccc(F)cc2)cc1 | 0.89 |
| Fc1ccc(C(OCCN2CCN(Cc3ccc4ccccc4n3)CC2)c2ccc(F)cc2)cc1 | -0.04 |
| Fc1ccc(C(OCCC2CCN(Cc3cc4ccccc4o3)CC2)c2ccc(F)cc2)cc1 | 1.93 |
